# target desc: α5β3γ2 GABAA receptors (Homo sapiens, UniProt P18507+P31644)
# Sequence (P31644 32-462): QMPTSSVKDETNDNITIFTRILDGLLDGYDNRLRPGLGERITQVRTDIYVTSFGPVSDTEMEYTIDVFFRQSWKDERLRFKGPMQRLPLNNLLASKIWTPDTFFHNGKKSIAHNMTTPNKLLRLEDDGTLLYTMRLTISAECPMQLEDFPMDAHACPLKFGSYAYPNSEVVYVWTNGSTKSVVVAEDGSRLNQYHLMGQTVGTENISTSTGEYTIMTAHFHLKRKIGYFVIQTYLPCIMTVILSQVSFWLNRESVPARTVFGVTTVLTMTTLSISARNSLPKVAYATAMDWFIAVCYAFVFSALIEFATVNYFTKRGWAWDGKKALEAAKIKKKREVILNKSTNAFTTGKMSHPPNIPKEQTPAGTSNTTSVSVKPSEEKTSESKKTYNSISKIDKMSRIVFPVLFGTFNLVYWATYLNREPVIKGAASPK
# Sequence (P28472 26-473 partner): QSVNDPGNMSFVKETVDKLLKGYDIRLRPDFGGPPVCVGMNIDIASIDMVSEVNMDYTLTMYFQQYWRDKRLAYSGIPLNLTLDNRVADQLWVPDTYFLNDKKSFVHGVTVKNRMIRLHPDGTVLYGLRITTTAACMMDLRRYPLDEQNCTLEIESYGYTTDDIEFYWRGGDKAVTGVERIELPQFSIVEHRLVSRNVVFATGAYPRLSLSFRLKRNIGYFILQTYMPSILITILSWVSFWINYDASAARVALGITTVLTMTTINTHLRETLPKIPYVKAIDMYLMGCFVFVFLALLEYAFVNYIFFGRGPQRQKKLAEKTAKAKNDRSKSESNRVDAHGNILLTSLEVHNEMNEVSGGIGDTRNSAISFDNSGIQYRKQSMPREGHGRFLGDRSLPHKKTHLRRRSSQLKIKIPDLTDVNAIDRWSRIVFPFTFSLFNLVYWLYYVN
# Sequence (P18507 40-475): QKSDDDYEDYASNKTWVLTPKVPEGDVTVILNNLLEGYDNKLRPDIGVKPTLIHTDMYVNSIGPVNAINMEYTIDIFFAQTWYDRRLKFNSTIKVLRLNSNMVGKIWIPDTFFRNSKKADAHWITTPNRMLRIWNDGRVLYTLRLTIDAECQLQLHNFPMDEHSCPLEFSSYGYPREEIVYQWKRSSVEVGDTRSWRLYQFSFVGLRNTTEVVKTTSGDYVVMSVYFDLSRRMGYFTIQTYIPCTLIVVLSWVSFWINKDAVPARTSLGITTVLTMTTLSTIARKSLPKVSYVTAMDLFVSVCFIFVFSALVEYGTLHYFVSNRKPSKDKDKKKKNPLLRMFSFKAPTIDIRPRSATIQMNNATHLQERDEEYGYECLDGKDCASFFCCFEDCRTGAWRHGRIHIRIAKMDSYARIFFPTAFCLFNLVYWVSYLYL
# protocol description: [3H]Ro15-1788 binding, membranes of Ltk cells stably expressing α5β3γ2 GABAA receptors
parameter measured: Ki

Known results for molecules:
| molecule | target desc | Ki |
| --- | --- | --- |
| Cc1noc(-c2ncn3c2Cc2c(Cc4ccc(F)cc4)nnn2-c2cc(C(F)(F)F)ccc2-3)n1 [Compound 484] | α5β3γ2 GABAA receptors (Homo sapiens, UniProt P18507+P31644) | < 100 nM |
| Fc1cccc(COCc2ncn3c2Cc2cnnn2-c2cc(Cl)ccc2-3)c1 [Compound 543] | α5β3γ2 GABAA receptors (Homo sapiens, UniProt P18507+P31644) | 100 to 1000 nM |
| CC(C)Oc1ccc(C#Cc2ncn3c2Cc2cnnn2-c2cc(Cl)ccc2-3)cn1 [Compound 697] | α5β3γ2 GABAA receptors (Homo sapiens, UniProt P18507+P31644) | < 100 nM |
| COc1ccc2c(c1)-n1nncc1Cc1c(-c3cn(-c4ccccc4)nn3)ncn1-2 [Compound 524] | α5β3γ2 GABAA receptors (Homo sapiens, UniProt P18507+P31644) | 100 to 1000 nM |
| Cc1noc(-c2ncn3c2Cc2c(Cc4ccc(F)cc4)nnn2-c2cc(Cl)ccc2-3)n1 [Compound 479] | α5β3γ2 GABAA receptors (Homo sapiens, UniProt P18507+P31644) | < 100 nM |
| Clc1ccc2c(c1)-n1nncc1Cc1c(C#Cc3cnc4occc4c3)ncn1-2 [Compound 658] | α5β3γ2 GABAA receptors (Homo sapiens, UniProt P18507+P31644) | < 100 nM |

# batch: return Ki for each of the 2 molecules below
1. COc1n[nH]cc1C#Cc1ncn2c1Cc1cnnn1-c1cc(Cl)ccc1-2 [Compound 662]
2. COc1ccc2c(c1)-n1nncc1Cc1c(C3=NCC(C4CCCCC4)O3)ncn1-2 (racemic) [Compound 690]

Result block:
< 100 nM
100 to 1000 nM

* * *

# target desc: α5β3γ2 GABAA receptors (Homo sapiens, UniProt P18507+P31644)
# protocol description: [3H]Ro15-1788 binding, membranes of Ltk cells stably expressing α5β3γ2 GABAA receptors
# measurement parameters: ranges; inhibition of [3H]Ro15-1788 binding
pKi: −log10 of the molar value.
Consider the following molecules; for each one, report its pKi.

Known results for molecules:
| molecule | parameter measured | result |
| --- | --- | --- |
| Clc1ccc2c(c1)-n1nncc1Cc1c(C3=NCC(c4ccccn4)O3)ncn1-2 (centres unmarked) | pKi | > 7.00 |
| COCc1nnc2n1Cc1c(C#Cc3ccn4ccnc4c3)ncn1-c1ccc(OC)cc1-2 | pKi | > 7.00 |
| COCc1nnc2n1Cc1c(C#Cc3cc(C)ccn3)ncn1-c1ccc(OC)cc1-2 | pKi | 6.00 to 7.00 |
| COCc1nnc2n1Cc1c(C#Cc3cnc(C)n3C)ncn1-c1ccc(Cl)cc1-2 | pKi | > 7.00 |
| COc1ccc(C#Cc2ncn3c2Cc2cnnn2-c2cc(OC(F)F)ccc2-3)cn1 | pKi | > 7.00 |
| COCc1nnn2c1Cc1c(C#Cc3cnc(OC)s3)ncn1-c1ccc(Cl)cc1-2 | pKi | > 7.00 |

# batch: return pKi for each of the 3 molecules below
1. CCc1cncc(C#Cc2ncn3c2Cc2c(COC)nnn2-c2cc(Cl)ccc2-3)c1
2. CC(C)c1noc(-c2ncn3c2Cc2c(Cc4cccc(F)c4)nnn2-c2cc(Cl)ccc2-3)n1
3. FC(F)(F)c1ccc2c(c1)-n1nncc1Cc1c(C3=N[C@H](c4ccccc4)CO3)ncn1-2

Result block:
1. > 7.00
2. > 7.00
3. > 7.00

* * *

# target desc: GABAA receptors (α5β2γ2) (Homo sapiens, UniProt P18507+P31644)
# Construct: expressed in transfected cells
# Sequence (P31644 32-462): as the sequence (P31644 32-462) above
# Sequence (P47870 25-512, further chain): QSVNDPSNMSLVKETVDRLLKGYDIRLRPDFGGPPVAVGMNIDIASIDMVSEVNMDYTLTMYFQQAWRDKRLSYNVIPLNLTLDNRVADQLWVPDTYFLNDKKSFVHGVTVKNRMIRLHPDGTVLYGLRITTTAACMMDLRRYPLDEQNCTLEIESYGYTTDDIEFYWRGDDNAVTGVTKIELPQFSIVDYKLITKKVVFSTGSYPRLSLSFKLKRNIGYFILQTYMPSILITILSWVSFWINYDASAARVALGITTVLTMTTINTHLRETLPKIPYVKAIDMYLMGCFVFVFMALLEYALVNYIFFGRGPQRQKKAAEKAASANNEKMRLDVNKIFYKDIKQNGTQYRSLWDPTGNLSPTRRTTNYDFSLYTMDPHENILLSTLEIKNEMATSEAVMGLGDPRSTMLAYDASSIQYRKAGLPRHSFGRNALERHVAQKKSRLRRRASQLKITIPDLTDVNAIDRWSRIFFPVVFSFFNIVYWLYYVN
# Sequence (P18507 40-475): as the sequence (P18507 40-475) above
# protocol description: Positive allosteric modulator activity: potentiation of EC20 GABA current in oocytes
# Format: cell-based
# measurement parameters: read-out: GABA α5 Functional Data (potentiation of EC20 GABA); @ 100 nM; ranges
Consider the following compounds; for each one, report its activation at 0.1 µM.

| line notation | target desc | activation at 0.1 µM |
| --- | --- | --- |
| COc1ccc2c(c1)-n1nncc1Cc1c(C3=N[C@H](c4ccc(Cl)cc4)CO3)ncn1-2 | GABAA receptors (α5β2γ2) (Homo sapiens, UniProt P18507+P31644) | 20 to 50% |

# batch: return activation at 0.1 µM for each of the 4 compounds below
1. Cc1nc(-c2ncn3c2Cc2c(Cc4ccc(F)cc4)nnn2-c2cc(C(F)(F)F)ccc2-3)no1
2. FC(F)(F)c1ccc2c(c1)-n1nncc1Cc1c(-c3ncco3)ncn1-2
3. Clc1ccc2c(c1)-n1nncc1Cc1c(C3=NC[C@H](c4ccccc4)O3)ncn1-2
4. COCc1nnc2n1Cc1c(C#Cc3cnc(C)s3)ncn1-c1ccc(Cl)cc1-2

Result block:
1: 5 to 20%; 2: 5 to 20%; 3: 20 to 50%; 4: 20 to 50%

# batch: return activation at 0.1 µM for each of the 2 compounds below
1. COCc1nnc2n1Cc1c(C#CCc3cccc(F)c3)ncn1-c1ccc(Cl)cc1-2
2. COCc1nnc2n1Cc1c(C#Cc3ccc(OC)nc3)ncn1-c1ccc(Cl)cc1-2

Result block:
20 to 50%
20 to 50%

Query block: Write down the reported activation at 0.1 µM (system: GABAA receptors (α5β2γ2) (Homo sapiens, UniProt P18507+P31644)) of COCc1nnn2c1Cc1c(C3=NC[C@H](c4ccc(Cl)cc4)O3)ncn1-c1ccc(OC)cc1-2
Result block: 5 to 20%

* * *

Consider the following compounds; for each one, report its activation at 0.1 µM.
# target desc: GABAA receptors (α5β2γ2) (Homo sapiens, UniProt P18507+P31644)
# Construct: expressed in transfected cells
# protocol description: Positive allosteric modulator activity: potentiation of EC20 GABA current in oocytes
# Assay type: cell-based
# measurement parameters: read-out: GABA α5 Functional Data (potentiation of EC20 GABA); @ 100 nM; ranges

Known results for compounds:
| compound | target desc | activation at 0.1 µM |
| --- | --- | --- |
| CCOC(=O)c1ncn2c1Cc1c(Cc3cccnc3)nnn1-c1cc(C)ccc1-2 [Compound 111] | GABAA receptors (α5β2γ2) (Homo sapiens, UniProt P18507+P31644) | 20 to 50% |
| COCc1nnc2n1Cc1c(C#Cc3ccc(OC)nn3)ncn1-c1ccc(OC)cc1-2 [Compound 712] | GABAA receptors (α5β2γ2) (Homo sapiens, UniProt P18507+P31644) | > 50% |
| COCc1nnc2n1Cc1c(C#Cc3ccn4ccnc4c3)ncn1-c1ccc(Cl)cc1-2 [Compound 679] | GABAA receptors (α5β2γ2) (Homo sapiens, UniProt P18507+P31644) | > 50% |
| CC(C)(C)c1nc(-c2ncn3c2Cc2cnnn2-c2cc(Cl)ccc2-3)no1 [Compound 536] | GABAA receptors (α5β2γ2) (Homo sapiens, UniProt P18507+P31644) | 20 to 50% |
| Clc1ccc2c(c1)-n1nncc1Cc1c(-c3cn(Cc4ccccc4)nn3)ncn1-2 [Compound 523] | GABAA receptors (α5β2γ2) (Homo sapiens, UniProt P18507+P31644) | 5 to 20% |
| COCc1nnn2c1Cc1c(C#Cc3ccc(OC)cn3)ncn1-c1ccc(Cl)cc1-2 [Compound 637] | GABAA receptors (α5β2γ2) (Homo sapiens, UniProt P18507+P31644) | 20 to 50% |

# batch: return activation at 0.1 µM for each of the 8 compounds below
1. CC(C)(C)C#Cc1ncn2c1Cc1cnnn1-c1cc(Cl)ccc1-2 [Compound 534]
2. FC(F)(F)c1ccc(C#Cc2ncn3c2Cc2cnnn2-c2cc(Cl)ccc2-3)nc1 [Compound 701]
3. Fc1ccc(C#Cc2ncn3c2Cc2cnnn2-c2cc(C(F)(F)F)ccc2-3)cc1 [Compound 501]
4. C#Cc1ncn2c1Cn1c(COc3ccccc3F)nnc1-c1cc(Cl)ccc1-2 [Compound 353]
5. COCc1nnc2n1Cc1c(C#Cc3ccnc(OC)c3)ncn1-c1ccc(Cl)cc1-2 [Compound 570]
6. FC(F)(F)c1ccc2c(c1)-n1nncc1Cc1c(C3=NC[C@@H](c4ccccc4)O3)ncn1-2 [Compound 624]
7. C#Cc1ccc2c(c1)-c1nnc(COC)n1Cc1c(C3=N[C@@H](c4ccccc4)CO3)ncn1-2 [Compound 301]
8. CC(C)c1noc(-c2ncn3c2Cc2c(Cc4cccc(F)c4)nnn2-c2cc(Cl)ccc2-3)n1 [Compound 481]

Result block:
1: 5 to 20%; 2: 5 to 20%; 3: 20 to 50%; 4: > 50%; 5: 5 to 20%; 6: 5 to 20%; 7: 5 to 20%; 8: 5 to 20%

# batch: return activation at 0.1 µM for each of the 3 compounds below
1. COCc1nnc2n1Cc1c(C#Cc3ccc(OC)cc3)ncn1-c1ccc(Cl)cc1-2 [Compound 526]
2. COCc1nnc2n1Cc1c(C#Cc3ccc(OC)c(C)n3)ncn1-c1ccc(Cl)cc1-2 [Compound 581]
3. COc1ccc(C#Cc2ncn3c2Cc2cnnn2-c2cc(OC(F)F)ccc2-3)cn1 [Compound 555]

Result block:
5 to 20%
20 to 50%
5 to 20%
